- Tested on: A375 multi-cell spheroids with HUVEC/MSC, viability
- assay notes: Anticancer human tumor A375 cell line growth inhibition [GQUAD]; active means viability on the fitted dose curve at most 10% of control; inactive means the rest;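 further: spheroids exposed to compounds for seven days before readout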
- condition summary: second compound 0.0316 µM; first compound 0.316 µM
Can you answer with just one of these options? active, inactive

[[record]]
molecule = "CC1COCCN1c1cc(-c2ccnn2C)c2ccnc(-c3ccn[nH]3)c2n1 (stereo not given) + Cc1[nH]c2ccc(F)cc2c1-c1nc2c3cccnc3c3ncccc3c2[nH]1"
qualitative_label = "inactive"

[[record]]
molecule = "O=C(c1cc(Cc2n[nH]c(=O)c3ccccc23)ccc1F)N1CCN(C(=O)C2CC2)CC1 + Cc1cnc(CNC(=O)c2c(=O)c3ccc(N4CCCN(C)CC4)nc3n3c2sc2ccccc23)cn1"
qualitative_label = "inactive"

[[record]]
molecule = "COc1cccc2c1C(=O)c1c(O)c3c(c(O)c1C2=O)CC(O)(C(=O)CO)CC3OC1CC(N)C(O)C(C)O1 (stereo not given) + CN(C)c1ccc(Nc2c3ccc(NC(=O)CCN4CCCC4)cc3nc3cc(NC(=O)CCN4CCCC4)ccc23)cc1"
qualitative_label = "inactive"

[[record]]
molecule = "Cc1cccc(N(C)C(=O)C2C(O)CCN2c2nc(C)cc(C(F)(F)F)c2C#N)c1 (stereo not given) + CN(C)c1ccc(Nc2c3ccc(NC(=O)CCN4CCCC4)cc3nc3cc(NC(=O)CCN4CCCC4)ccc23)cc1"
qualitative_label = "inactive"


# ---- query molecule ----
Each molecule tested received a call. Report the one for Nc1ccn(C2OC(CO)C(O)C2(F)F)c(=O)n1 (stereo not given) + CN(C)c1ccc(Nc2c3ccc(NC(=O)CCN4CCCC4)cc3nc3cc(NC(=O)CCN4CCCC4)ccc23)cc1 .
active

====

Recorded viability, T/C for the following molecules
- Tested on: A375 multi-cell spheroids with HUVEC/MSC, viability
- assay notes: Anticancer human tumor A375 cell line growth inhibition [GQUAD];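 further: spheroids exposed to compounds for seven days before readout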
- condition summary: second compound 3.16 µM; first compound 0.316 µM; stronger effect = lower value
Give just the numeric value; % need not be written.

[[record]]
molecule = "CC(C)(O)C1CCC(Nc2ccc3ncc(-c4cccc(C(F)(F)F)c4)n3n2)CC1 (stereo not given) + Cc1cnc(CNC(=O)c2c(=O)c3ccc(N4CCCN(C)CC4)nc3n3c2sc2ccccc23)cn1"
obs_value = 33

[[record]]
molecule = "CC1COCCN1c1cc(C2(O)CC3CCC(C2)O3)c2cnn(-c3ccn[nH]3)c2n1 (stereo not given) + CN(C)c1ccc(Nc2c3ccc(NC(=O)CCN4CCCC4)cc3nc3cc(NC(=O)CCN4CCCC4)ccc23)cc1"
obs_value = 41

[[record]]
molecule = "COc1ccc([C@@H](O)c2cc(-c3ncnc4cc(N5CCOCC5)ccc34)c(F)cc2Cl)nn1 + CN(C)c1ccc(Nc2c3ccc(NC(=O)CCN4CCCC4)cc3nc3cc(NC(=O)CCN4CCCC4)ccc23)cc1"
obs_value = 106

[[record]]
molecule = "CC(=O)O[C@H]1C(=O)[C@@]2(C)[C@H]([C@H](OC(=O)c3ccccc3)[C@]3(O)C[C@H](OC(=O)[C@H](O)[C@@H](NC(=O)c4ccccc4)c4ccccc4)C(C)=C1C3(C)C)[C@]1(OC(C)=O)CO[C@@H]1C[C@@H]2O + Cc1cnc(CNC(=O)c2c(=O)c3ccc(N4CCCN(C)CC4)nc3n3c2sc2ccccc23)cn1"
obs_value = 24.4


Field: next molecule
If you can, please state the reported viability, T/C value of O=C(NO)c1cnc(N2CCN(S(=O)(=O)c3ccc4ccccc4c3)CC2)nc1 + Cc1[nH]c2ccc(F)cc2c1-c1nc2c3cccnc3c3ncccc3c2[nH]1 .
24.7
